Test system: Staphylococcus aureus
Assay: Compound was evaluated for antibacterial activity against Staphylococcus aureus
Type: functional
MEASUREMENT TYPE: MIC (µM)
Form entry: value (µM) — number only.

Example substances with recorded MIC:
[
  {
    "SUBSTANCE": "H-KLGKKLGKLGKKLG-OH",
    "VAL": 22
  },
  {
    "SUBSTANCE": "H-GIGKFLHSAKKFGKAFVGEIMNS-NH2",
    "VAL": 19
  },
  {
    "SUBSTANCE": "H-KLAKKLAKLAKKLA-OH",
    "VAL": 6
  },
  {
    "SUBSTANCE": "H-KAAKKAAKAAKKAAKAAKKAA-OH",
    "VAL": 8
  }
]

Consider the record given below.
# input Query: MIC; subject: H-KLGKKLGKLGKKLGKLGKKLG-OH
# output 4
